FYI, the data here is from patent US7807678B2.

- tested.system: MC4-R (Homo sapiens, UniProt P32245)
- Sequence (P32245 whole entry): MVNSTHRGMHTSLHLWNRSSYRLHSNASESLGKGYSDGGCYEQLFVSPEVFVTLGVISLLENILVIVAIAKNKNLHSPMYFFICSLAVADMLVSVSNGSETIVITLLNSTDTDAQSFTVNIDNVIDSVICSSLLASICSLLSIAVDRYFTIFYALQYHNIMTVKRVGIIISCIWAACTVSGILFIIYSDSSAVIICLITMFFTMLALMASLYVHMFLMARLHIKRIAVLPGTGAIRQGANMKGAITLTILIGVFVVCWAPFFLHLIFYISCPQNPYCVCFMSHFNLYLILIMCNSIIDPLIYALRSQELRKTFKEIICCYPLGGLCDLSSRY
- assay.procedure: Competitive inhibition binding assay, 125I-NDP-α-MSH, MC4-R
- Set-up: expressed in transfected cells
- test.conditions: 1 μM compound; inhibition of 125I-NDP-α-MSH binding; mean of triplicates; results less than 0% reported as 0%
result.type: Inhibition at 1 μM MC4-R (%)
State the answer as a number, implicitly in %.

N[C@@H](COCc1ccccc1)C(=O)N[C@H](Cc1ccc(Cl)cc1Cl)C(=O)N1CCN(CCc2ccc3ccccc3c2)C(=O)[C@@H]1CCCNS(N)(=O)=O [Example 46]: 60
NCCCC[C@H]1C(=O)N(CCc2ccc3ccccc3c2)CCN1C(=O)[C@@H](Cc1ccc(Cl)cc1Cl)NC(=O)CCc1ccccc1 [Example 36]: 92

// moving on: another record for Inhibition at 1 μM MC4-R
Problem: I have this molecule here, NCCCC[C@H]1C(=O)N(CCOc2ccc3ccccc3c2)CCN1C(=O)[C@@H](Cc1ccc(Cl)cc1)NC(=O)[C@@H]1Cc2ccccc2CN1 [Example 30] , and I need its recorded Inhibition at 1 μM MC4-R.
Result: 88
